Target: VEGF165 (recombinant human vascular endothelial growth factor, 165 aa form) (Homo sapiens, UniProt P15692-4 P15692-4:27-191)
Sequence (P15692 other isoform, or with tags, fused parts or gaps): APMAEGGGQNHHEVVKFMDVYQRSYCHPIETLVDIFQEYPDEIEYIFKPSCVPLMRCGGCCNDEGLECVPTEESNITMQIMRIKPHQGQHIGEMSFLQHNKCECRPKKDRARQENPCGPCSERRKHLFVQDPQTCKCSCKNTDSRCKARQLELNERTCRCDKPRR
Assay: filter; Kd1, X1 0.74, Kd2 ~100 nM
Conditions: tags: gift from N. Ferrara, Genentech; chain copies: 2 (dimer, stated)

| binder | Kd (nM) |
| --- | --- |
| 26B (ssRNA, 2'-NH2 pyrimidines) RNA: GGGAGGACGAUGCGGCACCUUCGUGGGGUCAAGGAGGGUCGCGAGGCCGCAGGAUCAACCGUGUGCAGACGACUCGCCCGA | 0.37 |

These measurements were taken from patent US5811533.
